method-notes: Solubility in water, 24 hours stirring at ambient temperature, HPLC analysis
Type: physicochemical
experimental-conditions: thermodynamic from solid, base equivalent, read-out: solubility in terms of the base equivalent
Procedure: A solution containing 140 mg of the compound obtained in Example 1 in 7 ml of water is stirred for 24 hours at ambient temperature. After filtration using an Acrodisc GJHP 0.45[…] μm, the solution is analysed by HPLC.
measured-attribute: solubility at 24 h (mg/mL)
Report the figure in mg/mL without appending any unit label.

// query So what's the measured solubility at 24 h for this one? O=C1Nc2ccc(CN3C(=O)CSC3=O)cc2C1=Cc1cc(CN2CCOCC2)c[nH]1
// result 12.1
